Data origin, for the record: PubChem BioAssay

Measured z-score, listed per entry.
# assay.protocol: DUSP6 inhibitors restoring Erk phosphorylation by chemical complementation, primary imaging in DUSP6-transfected HeLa (AID 609)
# experimental.parameters: HeLa MKP-3 transfected, phospho-Erk imaging KS statistic; measured here: cell density z-score; at 10 µM; cells stimulated with TPA for 15 min
endpoint: z-score

[[record]]
compound = "Cc1cc(=O)[nH]c(COc2ccccc2)n1"
number = 0.188

[[record]]
compound = "CCCSc1nnc(NC(=O)Nc2ccc(F)cc2)s1"
number = 0.28

[[record]]
compound = "C=CCOn1c(=O)c(-c2ccc(OC)cc2)[n+]([O-])c2ccccc21"
number = 0.271

[[record]]
compound = "Cc1cccc(NC(=O)c2c(C)cc(=O)oc2C)n1"
number = 0.944

[[record]]
compound = "C=CCN(C)CCCNC(=O)/C=N/O"
number = 1.68

[[record]]
compound = "N#Cc1nc(COc2ccccc2F)oc1NCCCn1ccnc1"
number = -0.925

[[record]]
compound = "COc1cccc(N2CCN(C(=O)c3ccc(=O)oc3)CC2C)c1 (configuration not stated)"
number = 0.444

[[record]]
compound = "CCN1CCc2c(C#N)c(N3CCCCC3)nc(N3CCOCC3)c2C1"
number = 0.15

[[record]]
compound = "CC1(C)Cc2[nH]c(=S)c(C#N)cc2CO1"
number = 0.165

[[record]]
compound = "CSc1nc2[nH]c3c(c2c2ncnn12)CCCC3"
number = -0.205

[[record]]
compound = "O=C(NCc1ccccn1)c1ccc(=O)oc1"
number = 0.015

[[record]]
compound = "COC(=O)/C=c1/s/c(=C(\\C#N)C(=O)NCc2ccco2)n(-c2ccccc2)c1=O"
number = -0.296

